- Test system: Huvec-12, normal human umbilical vein endothelial cell line
- EXPERIMENT_NOTES: MTT cytotoxicity, normal cell line control
- Assay type: cell-based
- COND: Homo sapiens, Endothelial cell, Huvec-12 normal cell line
*1 amine or outer side, *2 acyl side, *3 side chain or, on linkers, in order; H or OH if unused. Where a SMILES comes first, the peptide text is derived from it. [ ]: non-standard residue; d: D form. ξ: configuration not given here. Trp(1-(1,1-Me2-allyl)) = C=CC(C)(C)n1cc(C[C@H](N)C(=O)O)c2ccccc21; NMeGlu(4S-Me) = C[C@@H](C[C@@H](C(=O)[*:2])N(C)[*:1])C(=O)[*:3]; Tyr(3-NO2) = N[CH](Cc1ccc(O)c([N+](=O)[O-])c1)C(=O)O; X1 = CC(C)(C1CO1)n1cc(CC(N[*:1])C(=O)[*:2])c2ccccc21; X2 = CC(CC(C(=O)[*:2])N(C)[*:1])C(=O)O; Gly(E-crotyl) = C/C=C/C[C@H](N)C(=O)O; ξNle(4,5-dehydro) = CC=CCC(N)C(=O)O; NMeL = CN[CH](CC(C)C)C(=O)O

{"COMPOUND": "CC=CCC1NC(=O)C(CC(C)C)N2C(=O)C(CC(C)C2O)N(C)C(=O)C(C)NC(=O)C(Cc2ccc(O)c([N+](=O)[O-])c2)NC(=O)C(CC(C)C)N(C)C(=O)C(Cc2cn(C(C)(C)C3CO3)c3ccccc23)NC1=O (stereo not shown)", "OP": "=", "IC50, µM": 33.8}
{"COMPOUND": "C=CC(C)(C)n1cc(C[C@@H]2NC(=O)[C@H](C/C=C/C)NC(=O)[C@H](CC(C)C)NC(=O)[C@H](C[C@H](C)C(=O)O)N(C)C(=O)[C@H](C)NC(=O)[C@H](Cc3ccc(O)c([N+](=O)[O-])c3)NC(=O)[C@H](CC(C)C)N(C)C2=O)c2ccccc21 [compound 8, ilamycin F] (cyclo(A[NMeGlu(4S-Me)]L[Gly(E-crotyl)][Trp(1-(1,1-Me2-allyl))][NMeL][Tyr(3-NO2)]))", "OP": ">", "IC50, µM": 50}
{"COMPOUND": "CC=CCC1NC(=O)C(CC(C)C)NC(=O)C(CC(C)C(=O)O)N(C)C(=O)C(C)NC(=O)C(Cc2ccc(O)c([N+](=O)[O-])c2)NC(=O)C(CC(C)C)N(C)C(=O)C(Cc2cn(C(C)(C)C3CO3)c3ccccc23)NC1=O (stereo not shown) [compound 5, ilamycin D] (cyclo([X2]L[ξNle(4,5-dehydro)][X1][NMeL][Tyr(3-NO2)]A); configuration not given here)", "OP": ">", "IC50, µM": 50}
{"COMPOUND": "CC=CCC1NC(=O)C(CC(C)C)NC(=O)C(CC(C)C)N(C)C(=O)C(C)NC(=O)C(Cc2ccc(O)c([N+](=O)[O-])c2)NC(=O)C(CC(C)C)N(C)C(=O)C(Cc2cn(C(C)(C)C3CO3)c3ccccc23)NC1=O (stereo not shown) [compound 2, ilamycin B2] (cyclo([ξNle(4,5-dehydro)][X1][NMeL][Tyr(3-NO2)]A[NMeL]L); configuration not given here)", "OP": "=", "IC50, µM": 18.6}
{"COMPOUND": "C=CC(C)(C)n1cc(C[C@@H]2NC(=O)[C@H](C/C=C/C)NC(=O)[C@H](CC(C)C)N3C(=O)[C@H](C[C@H](C)C3O)N(C)C(=O)[C@H](C)NC(=O)[C@H](Cc3ccc(O)c([N+](=O)[O-])c3)NC(=O)[C@H](CC(C)C)N(C)C2=O)c2ccccc21 (stereo partly shown)", "OP": "=", "IC50, µM": 18.6}
{"COMPOUND": "COc1cccc2c1C(=O)c1c(O)c3c(c(O)c1C2=O)C[C@@](O)(C(=O)CO)C[C@@H]3O[C@H]1C[C@H](N)[C@H](O)[C@H](C)O1 [Dox, Doxorubicin, reference compound]", "OP": "=", "IC50, µM": 34.3}
{"COMPOUND": "C=CC(C)(C)n1cc(C[C@@H]2NC(=O)[C@H](C/C=C/C)NC(=O)[C@H](CC(C)C)NC(=O)[C@H](CC(C)C)N(C)C(=O)[C@H](C)NC(=O)[C@H](Cc3ccc(O)c([N+](=O)[O-])c3)NC(=O)[C@H](CC(C)C)N(C)C2=O)c2ccccc21 [compound 1, ilamycin B1] (cyclo(A[NMeL]L[Gly(E-crotyl)][Trp(1-(1,1-Me2-allyl))][NMeL][Tyr(3-NO2)]))", "OP": ">", "IC50, µM": 50}
